target.desc: A3G-NTD-CTD2 (wild-type NTD fused to soluble CTD2) (Homo sapiens, UniProt Q9HC16 1-384, P200A;L234K;N236A;C243A;P247K;F310K;Q318K;C321A;Q322K;C356A)
Sequence (Q9HC16 whole entry P200A/L234K/N236A/C243A/P247K/F310K/Q318K/C321A/Q322K/C356A, the tested form may be a part): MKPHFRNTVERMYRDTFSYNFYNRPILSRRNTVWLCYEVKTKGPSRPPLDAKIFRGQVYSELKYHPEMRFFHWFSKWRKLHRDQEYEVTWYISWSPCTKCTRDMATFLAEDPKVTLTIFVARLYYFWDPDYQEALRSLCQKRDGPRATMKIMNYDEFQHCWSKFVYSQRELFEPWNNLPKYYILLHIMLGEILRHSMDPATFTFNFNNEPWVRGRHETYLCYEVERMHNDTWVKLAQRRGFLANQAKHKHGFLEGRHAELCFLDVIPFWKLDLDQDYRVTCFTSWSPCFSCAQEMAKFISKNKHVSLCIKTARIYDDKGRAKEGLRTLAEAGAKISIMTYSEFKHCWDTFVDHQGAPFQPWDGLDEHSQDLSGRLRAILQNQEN
test.description: MST
observed.property: Kd (µM)
Quick reminder: number only, in µM, skip the unit.

I have this binder here, AATCCCAAA (ssDNA) [9-nt CCC] , and I need its recorded Kd.
20.5
